Each entry below lists one item and its recorded half-life value.
# Assay explanation: Half life in TCN buffer at pH 7.5
# Format: physicochemical
The answer consists of two parts: a number and, after it, its unit.

Recorded half-life, per entry:
# Smi, half-life
data = [
    ("CC(C)C[C@H](NC(=O)CN(C(=O)[C@H](CC(C)C)NC(=O)[C@@H]1CCCN1C(=O)OCc1ccccc1)S(=O)(=O)c1ccc(-c2ccccc2)cc1)C(=O)N[C@@H](CCC(=O)O)C(=O)N[C@@H](CCC(=O)O)C(=O)N[C@@H](C)C(N)=O", "5.1 h"),
    ("CC(C)C[C@H](NC(=O)[C@@H]1CCCN1C(=O)OCc1ccccc1)C(=O)N(CC(=O)O)S(=O)(=O)c1ccc(-c2ccccc2)cc1", "27 h"),
]

Here is another compound to look at.
Which half-life value is on record for COc1ccc(S(=O)(=O)N(CC(=O)N[C@@H](CC(C)C)C(=O)N[C@@H](CCC(=O)O)C(=O)N[C@@H](CCC(=O)O)C(=O)N[C@@H](C)C(N)=O)C(=O)CNC(=O)[C@@H]2CCCN2C(=O)OCc2ccccc2)cc1 ?
6.4 h
